All values here come from BigSolDB 2.1.

- reportedConditions: in ethyl acetate, 293.15 K
testReadout: solubility (mole fraction)

>>> measured("Cc1onc(-c2c(Cl)cccc2Cl)c1C(=O)N[C@@H]1C(=O)N2[C@@H]1SC(C)(C)[C@@H]2C(=O)[O-].O.[Na+]")
0.000686

----------
- reportedConditions: in ethanol, 288.15 K
testReadout: solubility (mole fraction)

>>> measured("Cc1onc(-c2c(Cl)cccc2Cl)c1C(=O)N[C@@H]1C(=O)N2[C@@H]1SC(C)(C)[C@@H]2C(=O)[O-].O.[Na+]")
0.00146

----------
- reportedConditions: in isopropanol, 303.15 K
testReadout: solubility (mole fraction)

>>> measured("Cc1onc(-c2c(Cl)cccc2Cl)c1C(=O)N[C@@H]1C(=O)N2[C@@H]1SC(C)(C)[C@@H]2C(=O)[O-].O.[Na+]")
0.000683
